- System: SF-268 CNS
- protocol: NCI-60 one-dose screen, 48 h (100 = growth as untreated, 0 = no growth, -100 = all killed)
- experimental.parameters: 10 µM unless noted
About 83,000 compounds went through this panel and 20% of them were active in at least one assay; those are over-represented in the sample as a whole.
quantity: growth (%)
Quick note: give the figure in %, leave out the unit.

Cc1cccc(NC(=O)c2sc3nc4c(cc3c2N)C(=O)CCC4)c1    64.8
CCOC(=S)SCc1ccc(Cl)cc1    106

Supply measured growth of O=[N+]([O-])c1c(F)cccc1Nc1cccc(F)c1 in your reply.
105

Supply measured growth of COc1cc(-c2c3c(nc4c2c(C)nn4-c2ccccc2)-c2ccccc2C(=O)C3=O)cc(OC)c1OC in your reply.
78.9

Supply measured growth of COc1cc(OC)c(/C=C/S(=O)(=O)Cc2ccc(OC)c(N)n2)c(OC)c1 in your reply.
39

Supply measured growth of O=C1Nc2c(ccc(Cl)c2Cl)/C1=C/c1cc(Br)c(O)c(Br)c1 in your reply.
75.7

Supply measured growth of COc1ccccc1-c1ccc2c(N)c(C(=O)c3ccc4c(c3)OCO4)sc2n1 in your reply.
84.3

Supply measured growth of CN(C)c1ccc(/C=C\C2=[N+](C)c3ccccc3C2(C)C)cc1 in your reply.
6

Supply measured growth of CS(=O)CCCCCN=C=S (centres undefined) in your reply.
8.94

Supply measured growth of C[C@@H]1CCC2=C(CCC[C@]2(C)C(=O)O)[C@@]1(C)CCc1ccoc1 in your reply.
95.1

Supply measured growth of CC[n+]1ccc2c(c1)C(=O)c1nccc3c1c-2nc1ccccc13 in your reply.
-16.4

Supply measured growth of Cc1ccc(S(=O)(=O)n2cc(-c3csc(-c4cn(C)c5ncccc45)n3)c3ccccc32)cc1 in your reply.
74.1

Supply measured growth of O=C1/C(=C/c2ccc(Cl)c(Cl)c2)CN(C(=O)CCN2CCC(=NO)CC2)C/C1=C\c1ccc(Cl)c(Cl)c1 in your reply.
-82.6

Supply measured growth of O=c1c2cccc3c(Nc4c(F)cccc4F)ccc(c32)c2nc3ccccc3n12 in your reply.
97.8

* * *

- Test system: NCI-H522 lung
- protocol: NCI-60 one-dose screen, 48 h
- experimental.parameters: 10 µM unless noted
This is part of a sample that, as a whole, favours compounds with a hit. Of some 83,000 tested, about 20% had one in any assay. Active and inactive are the calls of the source. Rule for the calls: active = growth percent below 10; inactive = the rest.
Assign a class; possible classes are True (active), False (inactive)

Look over these answered cases.
CN1CCOCCOCCOc2ccccc2NC(=O)c2nc(cnc2N)-c2ccc(cc2)S1(=O)=O    False
O=C(/C=C/c1ccc(B(O)O)cc1)/C=C/c1ccc(B(O)O)cc1    False
CCOC(=O)CC(C)=N    False
CCN(C(=O)CN1CCN(c2cc3c(cc2F)c(=O)c(C(=O)O)cn3CC)CC1)c1nc(-c2ccccc2)cs1    True
Nc1cccc(NC(=O)C(=O)Nc2cccc(N)c2)c1    False
O=C(O)c1ccc(=O)[nH]n1    False
COc1ccc(-c2nn(-c3ccccc3)cc2/C=C/C(=O)OCc2cn(-c3ccc(F)c(Cl)c3)nn2)cc1    False
O=C1Nc2ccccc2/C1=C/C(=N/c1nnc(-c2ccc(Cl)cc2)s1)c1ccccc1    True

Please indicate how the test categorized O=C(CCCCN1CCOCC1)Nc1ccc(Cn2nnc3c2C(=O)c2nnn(Cc4ccc(NC(=O)CCCCN5CCOCC5)cc4)c2C3=O)cc1 .
True

Please indicate how the test categorized Cl/C(=N\Nc1ccccc1)c1ccccc1 .
False

Please indicate how the test categorized Fc1ccc(Cc2ccc(F)cc2)cc1 .
False

Please indicate how the test categorized CCN(CC)CC#CCOC(=O)[C@]1(C)CCC[C@@]2(C)[C@H]1CC(C=O)=C1C=C(C(C)C)CC[C@@H]12 .
False

Please indicate how the test categorized Cc1cc(Nc2nc(-c3cccnc3)nc3ccccc23)n[nH]1 .
False

Please indicate how the test categorized O=c1cc(-c2ccccc2)[nH]c2ccccc12 .
True

Please indicate how the test categorized Cc1ccc2c(c1)O/C(=C\c1cccc(OCC(=O)c3ccccc3)c1)C2=O .
False

Please indicate how the test categorized COc1ccc(N(Cc2cc(OC)c(OC)c(OC)c2)C2OC(=O)c3ccccc32)cc1 (stereo not drawn) .
True

Please indicate how the test categorized COc1ccc2[nH]c(=O)c(/C=C/C(=O)c3ccc(Nc4nccc(-c5ccc6ccccc6c5)n4)cc3)cc2c1 .
False

* * *

Below is a list of entries, each paired with its recorded growth value.
- System: OVCAR-3 ovarian
- protocol: NCI-60 one-dose screen, 48 h (100 = growth as untreated, 0 = no growth, -100 = all killed)
- experimental.parameters: 10 µM unless noted
About 83,000 compounds went through this panel and 20% of them were active in at least one assay; those are over-represented in the sample as a whole. Calls of active or inactive are those of the source. The calls were made as follows: active = growth percent below 10; inactive = the rest.

Supply measured growth of Nc1ccc(Nc2nccc(-c3ccc4ccccc4c3)n2)cc1 in your reply.
46.9% (inactive)

* * *

- Tested on: SW-620 colon
- protocol: NCI-60 one-dose screen, 48 h
- experimental.parameters: 10 µM unless noted
The panel holds about 83,000 compounds, 20% with a hit somewhere; the sample as a whole holds those more often. Active and inactive are the calls of the source. Rule for the calls: active = growth percent below 10; inactive = the rest.
Assign a class; possible classes are active, inactive

Look over these answered cases.
CC(C)[C@@H]1CC[C@]2(C(=O)NCCCCN=C(N)N)CC[C@]3(C)[C@H](CC[C@@H]4[C@@]5(C)CCC(=O)C(C)(C)[C@@H]5CC[C@]43C)[C@@H]12    inactive
CCCCCCCCSC1=CC(=O)C(OC)=C(OC)C1=O    active
Cc1cc(Nc2nc(N3CCN(C)CC3)nc3ccccc23)n[nH]1    inactive
COc1ccc(S(=O)(=O)NCCNc2nccc(-c3c(-c4cccc([N+](=O)[O-])c4)nc4sccn34)n2)cc1    inactive
C=C1CC[C@@H]2[C@](C)(COC(C)=O)[C@H](OC(C)=O)CC[C@@]2(C)[C@@H]1CC(Nc1ccc(S(=O)(=O)Nc2ccc(Cl)nn2)cc1)C1=CCOC1=O (stereo not given in full)    active
O=C(CNC1C2CC3CC(C2)CC1C3)Sc1nnc2sc3ccccc3n12 (stereo not given)    inactive

Please indicate how the test categorized O=C(Nc1nc(-c2ccccc2)cc(-c2ccc(Cl)cc2)n1)c1ccncc1 .
inactive

Please indicate how the test categorized O=C(O)c1ccccc1Nc1cccc(S(F)(F)(F)(F)F)c1 .
inactive

Please indicate how the test categorized CC(=O)N1CC(Nc2ccc(OC(F)(F)F)cc2)=CC1=O .
inactive

Please indicate how the test categorized O=C1/C(=C/c2ccccc2)CN(CCC(=O)N2C/C(=C\c3ccccc3)C(=O)/C(=C/c3ccccc3)C2)C/C1=C\c1ccccc1 .
active

* * *

- System: TK-10 renal
- protocol: NCI-60 one-dose screen, 48 h (100 = growth as untreated, 0 = no growth, -100 = all killed)
- experimental.parameters: 10 µM unless noted
The panel holds about 83,000 compounds, 20% with a hit somewhere; the sample as a whole holds those more often.
Could you label it 1.0 if measured growth is 90% or higher, and 0.0 otherwise?

Look over these answered cases.
O=C(CCCN1CCOCC1)Nc1ccc(Cn2nnc3c2C(=O)c2nnn(Cc4ccc(NC(=O)CCCN5CCOCC5)cc4)c2C3=O)cc1    1.0
NC1=CSC2=N/C(=C\c3ccc(Cl)cc3)C(=O)N12    0.0
Cc1sc2nc3[nH]/c(=C\c4ccc(Cl)cc4)c(=O)n3c(=O)c2c1C    1.0
O=C(CCN1CCOCC1)Nc1ccc(Cn2nnc3c2C(=O)c2nnn(Cc4ccc(NC(=O)CCN5CCOCC5)cc4)c2C3=O)cc1    1.0
CC1=C(C)C(=O)OC([C@](C)(O)[C@]2(O)CC[C@@]3(O)[C@@H]4C[C@H]5O[C@]56CC=CC(=O)[C@]6(C)[C@H]4CC[C@]23COC(=O)c2ccc(C)o2)C1 (some centres undefined)    0.0
Cc1ccc(/C=C2\Oc3cc(OCC(=O)c4ccc(Cl)cc4)ccc3C2=O)cc1    1.0

Could you now look at the following compound, please?
Tell me whether growth is at least 90% here: O=C1C[C@H](Sc2nc(-c3ccc(F)cc3)cc(C(F)(F)F)n2)[C@H]2CO[C@@H]1O2
1.0

* * *

Below is a list of entries, each paired with its recorded growth value.
- Tested on: NCI-H23 lung
- protocol: NCI-60 one-dose screen, 48 h (100 = growth as untreated, 0 = no growth, -100 = all killed)
- experimental.parameters: 10 µM unless noted
The panel holds about 83,000 compounds, 20% with a hit somewhere; the sample as a whole holds those more often.
Quick note: give the figure in %, leave out the unit.

Observe how each entry below is paired with its result.
COc1cc2c(=O)n(CC3CCCCC3)c3c4cc[nH]c4ncc3c2cc1OC    45.3
CC(C)(C)n1cc(-c2ccnc(NCCCNS(=O)(=O)c3cccc4ccccc34)c2)c(-c2cccc(O)c2)n1    42.1
N#CC1=C(N)Oc2c(ccc3ccccc23)C1c1cccs1 (configuration not stated)    18
Cc1cc(Cl)ccc1Nc1nc(C(F)(F)F)ccc1C(=O)N/N=C/c1ccc(F)cc1    16.4
CN(C)CC(=O)Nc1ccc(Cn2nnc3c2C(=O)c2nnn(Cc4ccc(NC(=O)CN(C)C)cc4)c2C3=O)cc1    -31.7
CC[C@]12C=CCN3CC[C@@]4(c5ccc(OC)cc5N(C)[C@H]4[C@@](O)(C(=O)OC)[C@@H]1OC(=O)CCC(=O)N[C@@H](Cc1c[nH]c4ccccc14)C(=O)OC)[C@@H]32    101

Next item in the queue.
Supply measured growth of COc1cnc2c(c1)C(=O)c1c-2n(CCCN2CCN(C)CC2)c(=O)c2cc([N+](=O)[O-])ccc12 in your reply.
-46.4

FYI, the data here is from PubChem BioAssay (NCI).
